src = patent US20230322953A1

# target.system: T1, biotinylated human BCMA-Fc, Avitag recombinant protein (ACRO Biosystems, #BC7-H82F0) (human, UniProt Q02223 1-54, biotinylated)
# T1 construct: extracellular domain; Bought protein; also called human BCMA protein; recombinant human BCMA-ECD-Fc; not shown: Fc of the bought fusion protein; Avitag
# T1 sequence (looked up): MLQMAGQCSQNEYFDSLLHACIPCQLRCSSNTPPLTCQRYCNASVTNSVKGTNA
# assay.info: BLI (Octet Red96e), biotinylated BCMA-Fc on SA sensor, VH supernatant, 100 nM, single concentration
test.readout: koff

[in] Give the measured koff of PR004569, PR001046 VH-derived single-domain variant 1046-R2-5H2 (VHH, Tested as VH single domain with Flag and His tags; not shown: Flag and His tags) VHH: EVQLVETGGGLIQPGGSLRLSCAASGFTVSDSYMTWVRQAPGKGLEWVSVIFSGGRTYYSDSVKGRFTISRDNAKNTLYLQMNSLRAEDTALYYCARRNYDQTRGTDVFDIWGQGTMVTVSS .
[out] 0.000254 s⁻¹

[in] What would you report for PR004566, PR001046 VH-derived single-domain variant 1046-R2-4G10 (VHH, Tested as VH single domain with Flag and His tags; not shown: Flag and His tags) VHH: EVQLVETGGGLIQPGGSLRLSCAASGFTVSDSYMTWVRQAPGKGLEWVSVIFSGGRTYYSDSVKGRFTISRDNAKNTLYLQMNSLRAEDTALYYCARRNYDDTRGTDVFDIWGQGTMVTVSS ?
[out] 0.000286 s⁻¹

[in] What would you report for PR004571, PR001046 VH-derived single-domain variant 1046-R2-6F1 (VHH, Tested as VH single domain with Flag and His tags; not shown: Flag and His tags) VHH: EVQLVETGGGLIQPGGSLRLSCAASGFTVSDSYMTWVRQAPGKGLEWVSVIFSGGKTYYSDSVKGRFTISRDNAKNTLYLQMNSLRAEDTALYYCARRNYDQTIGTDVFDIWGQGTMVTVSS ?
[out] 0.000219 s⁻¹

[in] What would you report for PR004559, PR001046 VH-derived single-domain variant 1046-R1-12G7 (VHH, Tested as VH single domain with Flag and His tags; also called PR001046-R1-12G7; not shown: Flag and His tags) VHH: EVQLVETGGGLIQPGGSLRLSCAASGFTVSDNYMTWVRQAPGKGLEWVSVIFSGGKTYYADSVKGRFTISRDNAKNTLYLQMNSLRAEDTALYYCARRNYDDTRGTDVFDIWGQGTMVTVSS ?
[out] 0.000379 s⁻¹

[in] What would you report for PR004568, PR001046 VH-derived single-domain variant 1046-R2-5H1 (VHH, Tested as VH single domain with Flag and His tags; not shown: Flag and His tags) VHH: EVQLVETGGGLIQPGGSLRLSCAASGFTVSDAYMTWVRQAPGKGLEWVSVIFSGGRTYVADSVKGRFTISRDNAKNTLYLQMNSLRAEDTALYYCARRNYDDTRGTDVFDIWGQGTMVTVSS ?
[out] 0.00023 s⁻¹
